# Study System: T1, human serum albumin (HSA), full length (human, UniProt P02768 25-609)
# T1 construct: mature; Immobilized on CM5 chip (SPR) or coated on plates (ELISA)
# T1 sequence (P02768 25-609): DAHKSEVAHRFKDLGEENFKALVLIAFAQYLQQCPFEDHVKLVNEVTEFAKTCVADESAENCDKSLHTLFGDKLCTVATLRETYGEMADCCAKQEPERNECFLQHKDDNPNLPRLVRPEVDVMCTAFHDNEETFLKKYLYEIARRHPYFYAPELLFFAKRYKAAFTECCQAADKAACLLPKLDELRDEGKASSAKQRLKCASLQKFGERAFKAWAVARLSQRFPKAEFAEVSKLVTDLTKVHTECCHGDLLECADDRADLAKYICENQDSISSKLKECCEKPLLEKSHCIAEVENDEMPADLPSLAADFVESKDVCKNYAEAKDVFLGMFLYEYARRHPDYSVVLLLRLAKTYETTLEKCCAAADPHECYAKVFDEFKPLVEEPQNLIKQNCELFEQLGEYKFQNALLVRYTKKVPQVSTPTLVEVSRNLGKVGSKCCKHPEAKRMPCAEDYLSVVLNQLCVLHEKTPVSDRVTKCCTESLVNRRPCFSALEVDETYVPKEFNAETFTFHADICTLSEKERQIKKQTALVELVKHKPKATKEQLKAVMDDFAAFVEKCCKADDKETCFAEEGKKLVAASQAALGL
# Method: SPR off-rate, immobilized HSA, 500 nM Adnectin, 25 C
# Protocol: Measurements were conducted by SPR and ELISA. SPR was conducted as follows. Full length HSA or mouse albumin was immobilized on a Biacore T series CM5 chip at 15 ug/mL in 10 mM acetate buffer (pH 5.0) buffer using standard NHS/EDC coupling, to a surface density of approximately 1000-1100 RU. […]
So basically: is koff under 0.01 s⁻¹? Then TRUE. Not under? Then FALSE.

Worked examples follow.
[[record]]
binder = "ADX_7016_C03 (Y44Q) (designed binder, Full His6-tagged entry; also called 6727_B03) MGVSDVPRDLEVVAATPTSLLISWDAPAVTVRYYRITYGREVQKYSDLGPLYIQQEFTVPGSKSTATISGLKPGVDYTITVYAVTGSGESPASSKPISINYRTEIDKPSQHHHHHH"
class_name = "FALSE"

[[record]]
binder = "ADX_6727_B09 (L38T/K85T) (designed binder, Full His6-tagged entry) MGVSDVPRDLEVVAATPTSLLISWDAPAVTVRYYRITYGREVQKYSDTGPLYIYQEFTVPGSKSTATISGLKPGVDYTITVYAVTGSGESPASSTPISINYRTEIDKPSQHHHHHH"
class_name = "TRUE"

[[record]]
binder = "ADX_6727_G06 (Y35A/K85S) (designed binder, Full His6-tagged entry) MGVSDVPRDLEVVAATPTSLLISWDAPAVTVRYYRITYGREVQKASDLGPLYIYQEFTVPGSKSTATISGLKPGVDYTITVYAVTGSGESPASSSPISINYRTEIDKPSQHHHHHH"
class_name = "TRUE"

[[record]]
binder = "ADX_6727_G10 (Y35S/K85A) (designed binder, Full His6-tagged entry) MGVSDVPRDLEVVAATPTSLLISWDAPAVTVRYYRITYGREVQKSSDLGPLYIYQEFTVPGSKSTATISGLKPGVDYTITVYAVTGSGESPASSAPISINYRTEIDKPSQHHHHHH"
class_name = "TRUE"

[[record]]
binder = "ADX_6727_H06 (Y44Q/K85T) (designed binder, Full His6-tagged entry) MGVSDVPRDLEVVAATPTSLLISWDAPAVTVRYYRITYGREVQKYSDLGPLYIQQEFTVPGSKSTATISGLKPGVDYTITVYAVTGSGESPASSTPISINYRTEIDKPSQHHHHHH"
class_name = "FALSE"

[[record]]
binder = "ADX_6727_H10 (L41S/K85S) (designed binder, Full His6-tagged entry) MGVSDVPRDLEVVAATPTSLLISWDAPAVTVRYYRITYGREVQKYSDLGPSYIYQEFTVPGSKSTATISGLKPGVDYTITVYAVTGSGESPASSSPISINYRTEIDKPSQHHHHHH"
class_name = "TRUE"


# ---- query binder ----
Task: Is koff of ADX_7016_A01 (parent PKE2 Adnectin) (designed binder, N-terminal Met may be cleaved; also called 2629_E06; ADX_2629_E06) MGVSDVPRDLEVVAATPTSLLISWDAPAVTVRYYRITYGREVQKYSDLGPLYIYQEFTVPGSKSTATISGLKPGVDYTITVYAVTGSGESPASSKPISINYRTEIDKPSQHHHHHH strictly below 0.01 s⁻¹?
Output: TRUE
